- Target Desc: T1, Nbp2, Q12163
- T1 sequence (Q12163 103-180, looked up): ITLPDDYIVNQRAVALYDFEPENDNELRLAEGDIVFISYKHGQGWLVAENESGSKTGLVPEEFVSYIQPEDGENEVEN
- Method Summary: SPOT array
- Experimental Context: median of control spots 357
The following binders are listed with their measured SPOT intensity values.

The examples below pair each entry with its known result.
1. HHKRRPTTIDVPGLT: 1
2. PAPPPPPRASRPTPN: 0
3. FPPKRKPLLRPQRSD: 9
4. PLRRTVMSLPGNHDI: 18
5. PSPSSSPPPIPKTAN: 0

Let us move to another entry and its SPOT intensity.
Incoming: Answer with the recorded SPOT intensity for the binder listed here: RKRRTHLRLPLIRSN
Outgoing: 9

Data credit: paper PMC2756588
